Tested on: DMS-114
Test: NCI tumour cell line growth inhibition, 48 h
Active and inactive are the calls of the source. Cut-off read from the data, not from the text of the source: active = GI50 up to about 1.1 µM and inactive = higher.
Possible outcomes: 1 for active, -1 for inactive

compound: COC(=O)c1nc(N)nc(C(=O)OC)c1C(=O)c1ccccc1
subject_of_test: DMS-114
class_label: -1
--
compound: O=C(C/C(=N\NC(=O)C[n+]1ccccc1)C(=O)Nc1nc2ccc([N+](=O)[O-])cc2s1)CC(c1ccccc1)c1c(O)c2ccccc2oc1=O (centres undefined)
subject_of_test: DMS-114
class_label: -1
--
compound: CN(C)c1nc(N(C)C)nc(N(C)CN(C)c2ccc(Cl)cc2)n1
subject_of_test: DMS-114
class_label: -1
--
compound: COc1cc([C@@H]2c3cc4c(cc3[C@@H](NC(=O)c3ccc(C(C)=O)cc3)C3COC(=O)[C@@H]32)OCO4)cc(OC)c1O (some centres undefined)
subject_of_test: DMS-114
class_label: 1

---

Measured GI50 of individual entries
Test system: T47D
Experiment: NCI tumour cell line growth inhibition, 48 h
Active and inactive are the calls of the source. No stated cut-off is given here; in the data, active = GI50 up to about 1.1 µM and inactive = higher.

compound: CC1(O)CCC(C(C)(C)O)CC1 (stereo unspecified)
GI50: > 100 µM (inactive)

compound: COc1cc2nc(-c3cccs3)nc(Nc3ccccc3C(=O)NN)c2cc1OC
GI50: > 100 µM (inactive)

compound: COc1cc(C[C@@H](C)N)cc(OC)c1
GI50: > 100 µM (inactive)

compound: COC(=O)C1=C(C)NC(C)=C(C(=O)OC)C1c1cccc(/[N+]([O-])=C/c2ccccc2)c1
GI50: 17.3 µM (inactive)

compound: CC(=O)OCC1OC(On2ccccc2=S)C(OC(C)=O)C(OC(C)=O)C1OC(C)=O (stereo unspecified)
GI50: 87.1 µM (inactive)

compound: COc1cccc(/C=N/NC(=O)CN(C)C)c1O
GI50: > 100 µM (inactive)

compound: CCOC(=O)c1nc2ccccc2nc1Oc1ccc(OC)cc1
GI50: > 100 µM (inactive)

compound: CCOC(=O)/C=C(\C(=O)OCC)n1ccc(=O)n(CC(=O)OCC)c1=O
GI50: 2.44 µM (inactive)

compound: N#C/C(N)=C(\C#N)NC(=O)C(=O)N/C(C#N)=C(\N)C#N
GI50: > 100 µM (inactive)

compound: O=C1Nc2ccc(Br)cc2/C1=N/NC(=S)Nc1ccc(F)cc1
GI50: 4.9 µM (inactive)

compound: CC1(C)N=C(N)N=C(N)N1c1cccc(CSc2ccccc2)c1
GI50: 12.9 µM (inactive)

---

Measured GI50 of individual entries
Tested on: A498
Assay: NCI tumour cell line growth inhibition, 48 h
Active and inactive are the calls of the source. Cut-off read from the data, not from the text of the source: active = GI50 up to about 1.1 µM and inactive = higher.
property: GI50

molecule: CCOC(=O)/C(=C\c1ccnc2ccccc12)P(=O)(OCC)OCC
subject_of_test: A498
property: GI50
result: 1.77 µM (inactive)

molecule: c1csc(C(NC2=NCCO2)C2CC2)c1 (stereo not given)
subject_of_test: A498
property: GI50
result: > 100 µM (inactive)

molecule: COc1cc([C@@H]2c3cc4c(cc3[C@@H](NC(=O)c3ccc(C(C)=O)cc3)C3COC(=O)[C@@H]32)OCO4)cc(OC)c1O (stereo not given in full)
subject_of_test: A498
property: GI50
result: 1.66 µM (inactive)

molecule: O=C1CCSSCCC(=O)NCCN1
subject_of_test: A498
property: GI50
result: > 100 µM (inactive)

molecule: O=C(Cc1nc2ccccc2o1)C(=O)Nc1cccc(Cl)c1
subject_of_test: A498
property: GI50
result: > 100 µM (inactive)

molecule: CC(=O)N[C@@H](Cc1ccc(O)cn1)C(=O)NC1CCCCC1
subject_of_test: A498
property: GI50
result: > 100 µM (inactive)

molecule: O=C(Nc1ccccc1Cl)c1ccc([N+](=O)[O-])cc1
subject_of_test: A498
property: GI50
result: > 100 µM (inactive)

molecule: Cc1ccc2nc(SCC(=O)N/N=C3\C(=O)Nc4ccccc43)n(-c3ccccc3)c(=O)c2c1
subject_of_test: A498
property: GI50
result: 14.9 µM (inactive)

molecule: CCOC(=O)C1=CC(C)(C(=O)OCC)Nc2c(nc(OC)[nH]c2=O)N1 (stereo not given)
subject_of_test: A498
property: GI50
result: > 10 µM (inactive)

molecule: CCN1CC2=C(NC(=S)NC2c2cc(OC)c(OC)c(OC)c2)/C(=C/c2cc(OC)c(OC)c(OC)c2)C1 (stereo not given)
subject_of_test: A498
property: GI50
result: 27.3 µM (inactive)
